test system: MS2 coat protein; test: apparent KD of MS2 coat protein; higher = weaker reporter binding; settings: Eterna round: R107; input ligand: theophylline 20 uM
assayMetric: apparent KD of MS2 coat protein (nM)
API: value field is a number in nM; no unit string.

In the examples that follow, each entry is paired with its recorded apparent KD of MS2 coat protein.
orderedResidues | studyTarget | apparent KD of MS2 coat protein (nM)
GGGUGGUAGGCGGCCGCCACUGAUUUUCAUUCCUAGAUGACAUGAGGAUCACCCAUGUUUAUGGGCAGGACCGGGCCUGCUGUGG [aaaV] | MS2 coat protein | 64.1
CAAACAUGAGGAUCACCCAUGUAAUCAGAUACCAGUGACGAAAGUCACCCUUGGCAGCUGAUUACUUUAGUUCUAAGGUGUUUGA [EThA NP+V+V2 #5 +-Same Structure] | MS2 coat protein | 116
GGACUAACCUGAAGGAGCGGCGCGCAGAAACUGCAAAUUCCUCCACACGAGGAUCACCCGUGUCAGGUAGGUCGCAGGUUAGUCG [ArgBX 28] | MS2 coat protein | 16.6
UCGCCCAGAAAGGAUUGCUGGGAUAUGGAAGGAGCGCUGAUGCCAGCAGGUAGGUCGCCAACGGACAUGAGGAUCACCCAUGUAC [Same State - Arginine A (Freestyle 6)] | MS2 coat protein | 28.7
AAUGUAUGGCACAUGAGGAUCACCCAUGUGCGAGGACCGGUACGGCCGCCACUCGGUCGUGGGUUCUUAUUACUAUACAUUAAUG [XTryp A #14] | MS2 coat protein | 12.8

Then there is this sequence:
Inquiry: Can you look up the measured apparent KD of MS2 coat protein of GUCUUGGGAUCGGCCGCCACUACAUGAGGAUCACCCAUGUGGACAAAUAGGGUUGUUAAGCUCGGUAGGACCGGGAUUCGGACAU [Oncetexeza] for me?
Reply text: 41.1

The origin of these recorded values is the supplement of paper PMC9170038.
